system: Escherichia coli; test: Antibacterial activity against Escherichia coli ATCC 25835 after 24 hrs by twofold serial dilution method; type: functional; conditions: ATCC 25835, 24 h
A collection of compounds and their measured log10 MIC
Could you please treat all values as log10 of MIC in µg/mL?

Sample answers from the record:
O=C(c1cccs1)[C@H]1[C@H](c2ccc(F)cc2)C2CCCN2[C@]12C(=O)Nc1ccccc12 (some centres undefined): 1.70
COc1ccc([C@@H]2C3CCCN3[C@]3(C(=O)Nc4ccccc43)[C@H]2C(=O)c2cccs2)cc1 (some centres undefined): 2.00
CN(C)c1ccc([C@@H]2C3CCCN3[C@]3(C(=O)Nc4ccccc43)[C@H]2C(=O)c2cccs2)cc1 (some centres undefined): 2.00
O=C(c1cccs1)[C@H]1[C@H](c2ccc(Cl)cc2)C2CCCN2[C@]12C(=O)Nc1ccccc12 (some centres undefined): 1.40
CN[C@@H]1[C@H](O[C@H]2[C@H](O[C@H]3[C@H](O)[C@@H](O)[C@H](N=C(N)N)[C@@H](O)[C@@H]3N=C(N)N)O[C@@H](C)[C@]2(O)C=O)O[C@@H](CO)[C@H](O)[C@H]1O [STREPTOMYCIN]: 1.10

The measured log10 MIC associated with O=C(c1cccs1)[C@H]1[C@H](c2cccc(Br)c2)C2CCCN2[C@]12C(=O)Nc1ccccc12 (some centres undefined) reads 1.70

So, O=C(c1cccs1)[C@H]1[C@H](c2ccccc2)C2CCCN2[C@]12C(=O)Nc1ccccc12 (some centres undefined) ? Its log10 MIC was 2.00

Value of measured log10 MIC for the entry Cc1ccc([C@@H]2C3CCCN3[C@]3(C(=O)Nc4ccccc43)[C@H]2C(=O)c2cccs2)cc1 (some centres undefined) : 1.70

For this compound ( O=C(c1cccs1)[C@H]1[C@H](c2ccc([N+](=O)[O-])cc2)C2CCCN2[C@]12C(=O)Nc1ccccc12 (some centres undefined) ), measured log10 MIC is 2.30

---

system: Salmonella typhi; assay: Antibacterial activity against Salmonella typhi ATCC 24915 after 24 hrs by twofold serial dilution method; format: functional, Salmonella enterica subsp. enterica serovar Typhi; conditions: Salmonella enterica, ATCC 24915, 24 h
readout.type: MIC (µg/mL)
Express your answer in µg/mL, writing the number without its unit.

Known MIC results, listed for orientation:
O=C(c1cccs1)[C@H]1[C@H](c2ccc(Cl)cc2)C2CCCN2[C@]12C(=O)Nc1ccccc12 (some centres undefined): 6.25
CN(C)c1ccc([C@@H]2C3CCCN3[C@]3(C(=O)Nc4ccccc43)[C@H]2C(=O)c2cccs2)cc1 (some centres undefined): 100
CN[C@@H]1[C@H](O[C@H]2[C@H](O[C@H]3[C@H](O)[C@@H](O)[C@H](N=C(N)N)[C@@H](O)[C@@H]3N=C(N)N)O[C@@H](C)[C@]2(O)C=O)O[C@@H](CO)[C@H](O)[C@H]1O [STREPTOMYCIN]: 50
Cc1ccc([C@@H]2C3CCCN3[C@]3(C(=O)Nc4ccccc43)[C@H]2C(=O)c2cccs2)cc1 (some centres undefined): 6.25
O=C(c1cccs1)[C@H]1[C@H](c2ccc(F)cc2)C2CCCN2[C@]12C(=O)Nc1ccccc12 (some centres undefined): 6.25

Lab entry: Salmonella typhi assay, compound COc1ccc([C@@H]2C3CCCN3[C@]3(C(=O)Nc4ccccc43)[C@H]2C(=O)c2cccs2)cc1 (some centres undefined) , MIC = 100

Form field, MIC with Salmonella typhi, item O=C(c1cccs1)[C@H]1[C@H](c2ccccc2)C2CCCN2[C@]12C(=O)Nc1ccccc12 (some centres undefined) : 100

Item O=C(c1cccs1)[C@H]1[C@H](c2ccc([N+](=O)[O-])cc2)C2CCCN2[C@]12C(=O)Nc1ccccc12 (some centres undefined) was tested on Salmonella typhi; the reported MIC is 100

The compound O=C(c1cccs1)[C@H]1[C@H](c2cccc(Br)c2)C2CCCN2[C@]12C(=O)Nc1ccccc12 (some centres undefined) , tested on Salmonella typhi, showed MIC of 100

# credit: ChEMBL document CHEMBL1629501
